Target: HIV-1 Env of isolate 92UG114 (subtype D) (HIV-1)
Experiment: cell-based or functional assay
property.measured: IC50 (neutralization) (µg/mL)

INSERT INTO measurements (binder, value_operator, recorded_number) VALUES
  ('PGT-123 (antibody, V domains shown) VH: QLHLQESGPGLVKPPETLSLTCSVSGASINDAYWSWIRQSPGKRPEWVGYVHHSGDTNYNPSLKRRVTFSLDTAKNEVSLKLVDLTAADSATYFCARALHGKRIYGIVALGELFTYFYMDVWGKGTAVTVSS VL: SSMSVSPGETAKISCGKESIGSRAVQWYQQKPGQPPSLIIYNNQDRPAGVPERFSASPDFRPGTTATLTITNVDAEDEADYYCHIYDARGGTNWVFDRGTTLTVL', '=', 0.005),
  ('PGT-130 (antibody, V domains shown) VH: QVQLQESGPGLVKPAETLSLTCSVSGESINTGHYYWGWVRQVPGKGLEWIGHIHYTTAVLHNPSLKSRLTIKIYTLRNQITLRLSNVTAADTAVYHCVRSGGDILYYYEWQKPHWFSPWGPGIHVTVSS VL: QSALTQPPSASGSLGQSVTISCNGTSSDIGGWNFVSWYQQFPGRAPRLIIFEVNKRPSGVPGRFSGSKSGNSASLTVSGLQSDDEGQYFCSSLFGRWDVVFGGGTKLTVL', '>', 50),
  ('PGT-127 (antibody, V domains shown) VH: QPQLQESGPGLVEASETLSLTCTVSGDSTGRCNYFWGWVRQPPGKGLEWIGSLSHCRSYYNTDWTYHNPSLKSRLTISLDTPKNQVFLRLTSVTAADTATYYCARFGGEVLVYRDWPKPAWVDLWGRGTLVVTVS VL: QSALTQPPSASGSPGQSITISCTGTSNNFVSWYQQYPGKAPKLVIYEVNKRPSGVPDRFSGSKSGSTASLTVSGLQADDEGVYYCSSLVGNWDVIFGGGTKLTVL', '=', 7.09),
  ('PGT-131 (antibody, V domains shown) VH: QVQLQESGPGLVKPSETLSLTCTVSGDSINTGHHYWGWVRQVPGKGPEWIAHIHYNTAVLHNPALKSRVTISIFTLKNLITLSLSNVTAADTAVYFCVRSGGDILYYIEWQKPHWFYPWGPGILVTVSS VL: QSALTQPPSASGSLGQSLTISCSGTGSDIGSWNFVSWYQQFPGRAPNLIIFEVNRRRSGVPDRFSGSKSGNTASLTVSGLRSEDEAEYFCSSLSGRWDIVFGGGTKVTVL', '>', 50),
  ('PGT-137 (antibody, V domains shown) VH: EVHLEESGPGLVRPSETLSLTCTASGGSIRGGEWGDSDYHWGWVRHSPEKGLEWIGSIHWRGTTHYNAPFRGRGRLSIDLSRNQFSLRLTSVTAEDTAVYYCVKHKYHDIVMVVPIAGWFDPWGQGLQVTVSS VL: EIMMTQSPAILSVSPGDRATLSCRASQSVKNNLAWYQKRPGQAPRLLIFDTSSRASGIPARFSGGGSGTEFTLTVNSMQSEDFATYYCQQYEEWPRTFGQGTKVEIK', '>', 50);
